So I've got a bunch of compounds here, and I need their dTm (C) values.
Target: Human Serum Albumin (HSA) (Homo sapiens, UniProt P02768)
Sequence (P02768 25-609): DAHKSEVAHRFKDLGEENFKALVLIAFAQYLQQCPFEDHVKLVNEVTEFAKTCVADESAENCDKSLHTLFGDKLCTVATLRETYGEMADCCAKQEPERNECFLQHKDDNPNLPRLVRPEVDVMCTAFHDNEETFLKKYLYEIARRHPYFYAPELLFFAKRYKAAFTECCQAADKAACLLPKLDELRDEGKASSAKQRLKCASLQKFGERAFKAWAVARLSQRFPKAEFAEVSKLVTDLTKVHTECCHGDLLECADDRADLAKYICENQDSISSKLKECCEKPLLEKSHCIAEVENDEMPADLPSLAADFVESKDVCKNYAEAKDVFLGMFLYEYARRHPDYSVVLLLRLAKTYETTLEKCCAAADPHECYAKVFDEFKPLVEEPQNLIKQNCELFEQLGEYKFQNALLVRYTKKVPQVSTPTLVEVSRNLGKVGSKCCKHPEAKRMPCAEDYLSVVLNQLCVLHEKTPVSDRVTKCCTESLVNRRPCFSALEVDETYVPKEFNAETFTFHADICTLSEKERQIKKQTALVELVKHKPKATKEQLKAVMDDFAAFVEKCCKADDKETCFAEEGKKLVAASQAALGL
Conditions: ligand concentration not given; binder
Please answer using the number first and the unit second.

I would be grateful if you could provide dTm (C) for each of the following entries.
1. CC(NC(C)(C)C)C(=O)c1cccc(Cl)c1 (centres unmarked)
2. CN(C)C(=N)NC(=N)N
3. COCCc1ccc(OCC(O)CNC(C)C)cc1 (centres unmarked)
4. C=CC1=C(C)/C(=C/c2[nH]c(Cc3[nH]c(/C=C4\NC(=O)C(C)=C4C=C)c(C)c3CCC(=O)O)c(CCC(=O)O)c2C)NC1=O

stdout:
1: 0.62 °C; 2: -0.31 °C; 3: -0.40 °C; 4: 0.30 °C

###

Target: Human Serum Albumin (HSA) (Homo sapiens, UniProt P02768)
Conditions: ligand concentration not given; binder
Under this convention, MET denotes dTm (C) strictly below 3 °C and NOT MET denotes dTm (C) at or above 3 °C.

molecule="CCN(CC)CCCC(C)Nc1ccnc2cc(Cl)ccc12 (stereo not shown) [Chloroquine]" class_assignment=MET
molecule="C[C@]12CC[C@@H]3c4ccc(O)cc4CC[C@H]3[C@@H]1CC[C@@H]2O [β-Estradiol]" class_assignment=MET
molecule="CCCCNc1ccc(C(=O)OCCN(C)C)cc1 [Tetracaine]" class_assignment="NOT MET"
molecule="CCCCCCCCCC(=O)O [Decanoic Acid]" class_assignment="NOT MET"
molecule="Cn1c(=O)c2c(ncn2C)n(C)c1=O [Caffeine]" class_assignment=MET
molecule="O=C1OC2(c3ccc(O)cc3Oc3cc(O)ccc32)c2ccccc21 [Fluorescein]" class_assignment="NOT MET"

As a next step, examine the molecule that follows.
stdin: Does this molecule meet the criterion dTm (C) < 3 °C? C[C@H](CS)C(=O)N1CCC[C@H]1C(=O)O [Captopril]
stdout: MET
